- target: Adrenergic receptor alpha-1 (Rattus norvegicus, UniProt P15823+P23944+P43140)
- assayInfo: Antagonist activity at alpha1-adrenoceptor in rat anococcygeal muscle assessed as inhibition of phenylephrine-induced contraction
- Assay type: functional
measure: pA2

smilesinput=Cc1ccccc1N1CCN(CCCOc2ccc3c(=O)cc(-c4ccc(Cl)cc4)oc3c2)CC1 recordedresult=7.772
smilesinput=O=c1cc(-c2ccccc2)oc2cc(OCCBr)ccc12 recordedresult=6.897
smilesinput=O=c1cc(-c2ccc(Cl)cc2)oc2cc(OCCN3CCN(c4ccccc4)CC3)ccc12 recordedresult=8.579
smilesinput=O=c1cc(-c2ccccc2)oc2cc(OCCCN3CCN(c4ccccc4)CC3)ccc12 recordedresult=8.177
smilesinput=Cc1ccccc1N1CCN(CCCOc2ccc3c(=O)cc(-c4ccccc4)oc3c2)CC1 recordedresult=6.93
smilesinput=O=c1cc(-c2ccc(Cl)cc2)oc2cc(OCCCN3CCN(c4ccccc4)CC3)ccc12 recordedresult=8.072
smilesinput=Cc1ccc(N2CCN(CCCOc3ccc4c(=O)cc(-c5ccc(Cl)cc5)oc4c3)CC2)cc1 recordedresult=8.088
smilesinput=O=c1cc(-c2ccc(Cl)cc2)oc2cc(OCCBr)ccc12 recordedresult=6.925
smilesinput=O=c1cc(-c2ccccc2)oc2cc(OCCCCN3CCN(c4ccccc4)CC3)ccc12 recordedresult=8.333
smilesinput=O=c1cc(-c2ccc(Cl)cc2)oc2cc(OCCCBr)ccc12 recordedresult=6.168
smilesinput=Cc1ccccc1N1CCN(CCOc2ccc3c(=O)cc(-c4ccc(Cl)cc4)oc3c2)CC1 recordedresult=8.207
